// values below are reported viability, T/C
# Tested on: 695427-040-R-J1-PDC complex spheroid viability
# ASSAY_COMMENT: Anticancer human tumor 695427-040-R-J1-PDC patient-derived colon adenocarcinoma cell line growth inhibition [RAS]
# CONDITIONS_USED: second compound 0.3 µM; first compound 0.0316 µM; active compounds read low
State the answer as a number, implicitly in %.

A selection of reference data follows.
[
  {
    "MOLECULE": "CC1(O)CCCC1n1c(=O)c(C(F)F)cc2cnc(NC3CCN(S(C)(=O)=O)CC3)nc21 (stereo unspecified) + CCn1c(-c2cc(N3CCN(C)CC3)cnc2C(C)OC)c2c3cc(ccc31)-c1csc(n1)CC(NC(=O)C1CC1C)C(=O)N1CCCC(N1)C(=O)OCC(C)(C)C2",
    "TARGET_OF_ASSAY": "695427-040-R-J1-PDC complex spheroid viability",
    "VALUE_TYPE": "viability, T/C",
    "VALUE_UNIT": "%",
    "EXPERIMENTAL_VALUE": 40.5
  },
  {
    "MOLECULE": "CC(C)NCC(C(=O)N1CCN(c2ncnc3c2C(C)CC3O)CC1)c1ccc(Cl)cc1 (stereo unspecified) + CCn1c(-c2cc(N3CCN(C)CC3)cnc2C(C)OC)c2c3cc(ccc31)-c1csc(n1)CC(NC(=O)C1CC1C)C(=O)N1CCCC(N1)C(=O)OCC(C)(C)C2",
    "TARGET_OF_ASSAY": "695427-040-R-J1-PDC complex spheroid viability",
    "VALUE_TYPE": "viability, T/C",
    "VALUE_UNIT": "%",
    "EXPERIMENTAL_VALUE": 36.9
  },
  {
    "MOLECULE": "C=CC(=O)Nc1cc(Nc2nccc(-c3cn(C)c4ccccc34)n2)c(OC)cc1N(C)CCN(C)C + CCn1c(-c2cc(N3CCN(C)CC3)cnc2C(C)OC)c2c3cc(ccc31)-c1csc(n1)CC(NC(=O)C1CC1C)C(=O)N1CCCC(N1)C(=O)OCC(C)(C)C2",
    "TARGET_OF_ASSAY": "695427-040-R-J1-PDC complex spheroid viability",
    "VALUE_TYPE": "viability, T/C",
    "VALUE_UNIT": "%",
    "EXPERIMENTAL_VALUE": 29.7
  },
  {
    "MOLECULE": "NC1c2ccccc2OC12CCN(c1cnc3c(N4CCCc5ncccc54)n[nH]c3n1)CC2 (stereo unspecified) + CCn1c(-c2cc(N3CCN(C)CC3)cnc2C(C)OC)c2c3cc(ccc31)-c1csc(n1)CC(NC(=O)C1CC1C)C(=O)N1CCCC(N1)C(=O)OCC(C)(C)C2",
    "TARGET_OF_ASSAY": "695427-040-R-J1-PDC complex spheroid viability",
    "VALUE_TYPE": "viability, T/C",
    "VALUE_UNIT": "%",
    "EXPERIMENTAL_VALUE": 27.5
  }
]

Challenge: What viability, T/C value was documented for this molecule, CC(=O)OC12COC1CC(O)C1(C)C(=O)C(O)C3=C(C)C(OC(=O)C(O)C(NC(=O)OC(C)(C)C)c4ccccc4)CC(O)(C(OC(=O)c4ccccc4)C21)C3(C)C (stereo unspecified) + CCn1c(-c2cc(N3CCN(C)CC3)cnc2C(C)OC)c2c3cc(ccc31)-c1csc(n1)CC(NC(=O)C1CC1C)C(=O)N1CCCC(N1)C(=O)OCC(C)(C)C2 ?
Response given: 35.2

Challenge: What viability, T/C value was documented for this molecule, CC(C)NCC(C(=O)N1CCN(c2ncnc3c2C(C)CC3O)CC1)c1ccc(Cl)cc1 (stereo unspecified) + CCn1c(-c2cccnc2C(C)OC)c2c3cc(ccc31)N1CCOC(CC(NC(=O)C(C(C)C)N(C)C(=O)C3(F)CCN(C(=O)C#CC(C)(C)N(C)C)CC3)C(=O)N3CCCC(N3)C(=O)OCC(C)(C)C2)C1 ?
Response given: 105

* * *

# Tested on: 695427-040-R-J1-PDC complex spheroid viability
# ASSAY_COMMENT: Anticancer human tumor 695427-040-R-J1-PDC cell line growth inhibition [RAS];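 note: viability read after seven days of drug exposure; 100% = DMSO vehicle control viability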
# CONDITIONS_USED: second compound 0.3 µM; first compound 0.1 µM; active compounds read low
VALUE_TYPE: viability, T/C (%)
State the answer as a number, implicitly in %.

[
  {
    "COMPOUND": "CC1(O)CCCC1n1c(=O)c(C(F)F)cc2cnc(NC3CCN(S(C)(=O)=O)CC3)nc21 (stereo not given) + CCn1c(-c2cccnc2C(C)OC)c2c3cc(ccc31)N1CCOC(CC(NC(=O)C(C(C)C)N(C)C(=O)C3(F)CCN(C(=O)C#CC(C)(C)N(C)C)CC3)C(=O)N3CCCC(N3)C(=O)OCC(C)(C)C2)C1",
    "VALUE_UNIT": "%",
    "viability, T/C": 94
  },
  {
    "COMPOUND": "Nc1ccn(C2OC(CO)C(O)C2(F)F)c(=O)n1 (stereo not given) + CCn1c(-c2cc(N3CCN(C)CC3)cnc2C(C)OC)c2c3cc(ccc31)-c1csc(n1)CC(NC(=O)C1CC1C)C(=O)N1CCCC(N1)C(=O)OCC(C)(C)C2",
    "VALUE_UNIT": "%",
    "viability, T/C": 33.1
  },
  {
    "COMPOUND": "CCC(CC)c1cc(NC2CCC(N)C2)n2nccc2n1 (stereo not given) + CCn1c(-c2cccnc2C(C)OC)c2c3cc(ccc31)N1CCOC(CC(NC(=O)C(C(C)C)N(C)C(=O)C3(F)CCN(C(=O)C#CC(C)(C)N(C)C)CC3)C(=O)N3CCCC(N3)C(=O)OCC(C)(C)C2)C1",
    "VALUE_UNIT": "%",
    "viability, T/C": 77
  },
  {
    "COMPOUND": "CC(=O)OC12COC1CC(O)C1(C)C(=O)C(O)C3=C(C)C(OC(=O)C(O)C(NC(=O)OC(C)(C)C)c4ccccc4)CC(O)(C(OC(=O)c4ccccc4)C21)C3(C)C (stereo not given) + CCn1c(-c2cc(N3CCN(C)CC3)cnc2C(C)OC)c2c3cc(ccc31)-c1csc(n1)CC(NC(=O)C1CC1C)C(=O)N1CCCC(N1)C(=O)OCC(C)(C)C2",
    "VALUE_UNIT": "%",
    "viability, T/C": 28.4
  },
  {
    "COMPOUND": "CC(C)n1nc(-c2ccc3oc(N)nc3c2)c2c(N)ncnc21 + CCn1c(-c2cccnc2C(C)OC)c2c3cc(ccc31)N1CCOC(CC(NC(=O)C(C(C)C)N(C)C(=O)C3(F)CCN(C(=O)C#CC(C)(C)N(C)C)CC3)C(=O)N3CCCC(N3)C(=O)OCC(C)(C)C2)C1",
    "VALUE_UNIT": "%",
    "viability, T/C": 48
  }
]

Challenge: What viability, T/C value was documented for this compound, Nc1ccn(C2OC(CO)C(O)C2(F)F)c(=O)n1 (stereo not given) + CCn1c(-c2cccnc2C(C)OC)c2c3cc(ccc31)N1CCOC(CC(NC(=O)C(C(C)C)N(C)C(=O)C3(F)CCN(C(=O)C#CC(C)(C)N(C)C)CC3)C(=O)N3CCCC(N3)C(=O)OCC(C)(C)C2)C1 ?
Response given: 79.3

Challenge: What viability, T/C value was documented for this compound, O=C(c1ccc(F)c(F)c1Nc1ccc(I)cc1F)N1CC(O)([C@@H]2CCCCN2)C1 + CCn1c(-c2cccnc2C(C)OC)c2c3cc(ccc31)N1CCOC(CC(NC(=O)C(C(C)C)N(C)C(=O)C3(F)CCN(C(=O)C#CC(C)(C)N(C)C)CC3)C(=O)N3CCCC(N3)C(=O)OCC(C)(C)C2)C1 ?
Response given: 42

Challenge: What viability, T/C value was documented for this compound, CC(C)n1nc(-c2ccc3oc(N)nc3c2)c2c(N)ncnc21 + CCn1c(-c2cc(N3CCN(C)CC3)cnc2C(C)OC)c2c3cc(ccc31)-c1csc(n1)CC(NC(=O)C1CC1C)C(=O)N1CCCC(N1)C(=O)OCC(C)(C)C2 ?
Response given: 15.7

Challenge: What viability, T/C value was documented for this compound, CC(C)NCC(C(=O)N1CCN(c2ncnc3c2C(C)CC3O)CC1)c1ccc(Cl)cc1 (stereo not given) + CCn1c(-c2cccnc2C(C)OC)c2c3cc(ccc31)N1CCOC(CC(NC(=O)C(C(C)C)N(C)C(=O)C3(F)CCN(C(=O)C#CC(C)(C)N(C)C)CC3)C(=O)N3CCCC(N3)C(=O)OCC(C)(C)C2)C1 ?
Response given: 72.8

Challenge: What viability, T/C value was documented for this compound, C=CC(=O)Nc1cc(Nc2nccc(-c3cn(C)c4ccccc34)n2)c(OC)cc1N(C)CCN(C)C + CCn1c(-c2cccnc2C(C)OC)c2c3cc(ccc31)N1CCOC(CC(NC(=O)C(C(C)C)N(C)C(=O)C3(F)CCN(C(=O)C#CC(C)(C)N(C)C)CC3)C(=O)N3CCCC(N3)C(=O)OCC(C)(C)C2)C1 ?
Response given: 52.8

Challenge: What viability, T/C value was documented for this compound, NC1c2ccccc2OC12CCN(c1cnc3c(N4CCCc5ncccc54)n[nH]c3n1)CC2 (stereo not given) + CCn1c(-c2cc(N3CCN(C)CC3)cnc2C(C)OC)c2c3cc(ccc31)-c1csc(n1)CC(NC(=O)C1CC1C)C(=O)N1CCCC(N1)C(=O)OCC(C)(C)C2 ?
Response given: 27

Challenge: What viability, T/C value was documented for this compound, CC1(O)CCCC1n1c(=O)c(C(F)F)cc2cnc(NC3CCN(S(C)(=O)=O)CC3)nc21 (stereo not given) + CCn1c(-c2cc(N3CCN(C)CC3)cnc2C(C)OC)c2c3cc(ccc31)-c1csc(n1)CC(NC(=O)C1CC1C)C(=O)N1CCCC(N1)C(=O)OCC(C)(C)C2 ?
Response given: 42

Challenge: What viability, T/C value was documented for this compound, C[C@@H](NC(=O)c1ncnc(N)c1Cl)c1ncc(C(=O)Nc2cc(C(F)(F)F)c(Cl)cn2)s1 + CCn1c(-c2cccnc2C(C)OC)c2c3cc(ccc31)N1CCOC(CC(NC(=O)C(C(C)C)N(C)C(=O)C3(F)CCN(C(=O)C#CC(C)(C)N(C)C)CC3)C(=O)N3CCCC(N3)C(=O)OCC(C)(C)C2)C1 ?
Response given: 94.4

Challenge: What viability, T/C value was documented for this compound, Cc1nc(N2CCC3(CC2)COC(C)C3N)c(CO)nc1Sc1ccnc(N)c1Cl (stereo not given) + CCn1c(-c2cc(N3CCN(C)CC3)cnc2C(C)OC)c2c3cc(ccc31)-c1csc(n1)CC(NC(=O)C1CC1C)C(=O)N1CCCC(N1)C(=O)OCC(C)(C)C2 ?
Response given: 32.3

Challenge: What viability, T/C value was documented for this compound, CC(Nc1ccc2c(c1)OCCn1cc(N3C(=O)OCC3C(F)F)nc1-2)C(N)=O (stereo not given) + CCn1c(-c2cccnc2C(C)OC)c2c3cc(ccc31)N1CCOC(CC(NC(=O)C(C(C)C)N(C)C(=O)C3(F)CCN(C(=O)C#CC(C)(C)N(C)C)CC3)C(=O)N3CCCC(N3)C(=O)OCC(C)(C)C2)C1 ?
Response given: 52
